testTarget: Pro-neuregulin-1, membrane-bound isoform (Homo sapiens) (UniProt Q02297)
Sequence (Q02297 whole entry, looked up, canonical isoform): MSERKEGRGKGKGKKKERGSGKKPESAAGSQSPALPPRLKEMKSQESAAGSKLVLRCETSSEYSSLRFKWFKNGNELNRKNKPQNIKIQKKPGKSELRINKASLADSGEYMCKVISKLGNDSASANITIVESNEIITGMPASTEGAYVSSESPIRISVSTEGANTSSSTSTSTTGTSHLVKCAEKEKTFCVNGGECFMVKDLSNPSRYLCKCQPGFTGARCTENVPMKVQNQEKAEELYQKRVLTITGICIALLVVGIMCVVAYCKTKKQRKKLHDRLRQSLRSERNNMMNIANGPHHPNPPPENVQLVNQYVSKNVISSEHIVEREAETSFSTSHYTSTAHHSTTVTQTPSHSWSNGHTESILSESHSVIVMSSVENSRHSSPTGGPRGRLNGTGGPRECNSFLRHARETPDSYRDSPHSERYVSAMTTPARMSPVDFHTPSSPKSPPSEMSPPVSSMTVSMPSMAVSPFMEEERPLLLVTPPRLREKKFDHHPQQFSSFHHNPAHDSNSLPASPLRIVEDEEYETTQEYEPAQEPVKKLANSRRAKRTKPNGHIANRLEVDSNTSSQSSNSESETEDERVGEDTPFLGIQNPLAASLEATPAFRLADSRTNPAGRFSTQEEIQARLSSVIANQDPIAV
testName: NRG1 binders on small-molecule microarrays, primary screen, psychiatric disease protein project, biochemical, small-molecule microarray, fluorescence 635/667 (AID 1075);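 further: score combines 667 nm spot fluorescence with signal to noise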
assayContext: NRG1 binding, 635 nm fluorescence, higher = more signal
Label TRUE for high-side composite z-score (at or above 0.6) and FALSE for low-side composite z-score (below it).

// below: answered molecules
molecule	categoryLabel
CC(C)=CCCC(C)=CCON=C1[C@H]2CCn3c(=O)n(Cc4cc5c(cc4Cl)OCO5)c(=O)n3[C@H]2[C@H](O)[C@@H]2O[C@H]12	FALSE
CO[C@@H]1COC(=O)CC=C[C@@H](C)COC(=O)[C@H](COCc2ccccc2)NC(=O)CC=C[C@H]1C	FALSE
CCCCCCc1nc(CCCc2cc3c(c(CCCCCC)n2)[Si](C(C)C)(C(C)C)O[C@H]3c2ccccc2)cc2c1[Si](C(C)C)(C(C)C)O[C@H]2c1ccccc1	FALSE
CCN1C(=O)[C@H]2[C@H]3[C@H](O)[C@H](O)CC(=NOC[C@@H](C)[C@H](OCc4ccccc4)C(C)C)[C@@H]3CC[C@H]2C1=O	TRUE
CC(=O)OC[C@H]1O[C@H](CCON=C(C)CCN2CCc3nc(-c4ccccc4)c(-c4ccccc4)cc3C2)C=C[C@@H]1OC(C)=O	FALSE
CC(C)CON=C1C[C@@H](O)[C@@H](O)[C@@H]2[C@@H]3C(=O)N([C@@H](C)c4ccccc4)C(=O)[C@@H]3CC[C@H]12	FALSE

Inquiry: Identify whether the reported composite z-score of the following molecule is 0.6 or greater: `CN(C)CCCNC(=O)[C@@H]1c2ccccc2C(=O)N(Cc2cc(F)cc(C(F)(F)F)c2)[C@H]1c1ccc(CO)cc1`
Reply text: TRUE

----------
testTarget: Neurogenic locus notch homolog protein 3 (Homo sapiens)
testName: NOTCH3 binders on small-molecule microarray, primary screen, biochemical, 635/667 nm fluorescence (AID 1096)
assayContext: NOTCH3 binding, 635 nm fluorescence, higher = more signal
# composite z-score annotations

molecule	testTarget	composite z-score
CCOC(=O)CCN1C(=O)[C@H]2[C@H]3[C@H](O)[C@H](O)CC(=O)[C@H]3CC[C@H]2C1=O	Neurogenic locus notch homolog protein 3 (Homo sapiens)	0.295
C[C@@H]1C=CCC(=O)OC[C@H](C)C(=O)N2CCC[C@H]2C(=O)OC1	Neurogenic locus notch homolog protein 3 (Homo sapiens)	0.677
O=C1[C@H]2[C@H]3[C@H](O)[C@H](O)CC(=NOC[C@@H](O)COCc4ccco4)[C@H]3CC[C@H]2C(=O)N1C1CCCCC1	Neurogenic locus notch homolog protein 3 (Homo sapiens)	0.214

Form field composite z-score, entry `O=C1[C@H]2[C@H]3[C@H](O)[C@H](O)CC(=NO[C@@H]4O[C@H](CO)[C@@H](O)[C@H](O)[C@H]4O)[C@@H]3CC[C@H]2C(=O)N1Cc1ccc2c(c1)OCO2` : 0.786

Form field composite z-score, entry `COC(=O)C1=C(C)[C@@H](O)[C@@H](C)[C@H](c2c(OC)c(OC)c(C)c(OC)c2OC)O1` : 0.105

----------
Test system: Noggin (protein binding on small-molecule microarray)
testName: Noggin binders on small-molecule microarray, primary screen, biochemical, 635/667 nm fluorescence (AID 1095);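 further: score merges 667 nm feature fluorescence with signal to noise over triplicate slides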
assayContext: 635 nm fluorescence, higher = more signal
# composite z-score annotations

compound	composite z-score
CN1C(=O)C2C(C1=O)C1C=C(CCCO)C2C(c2ccc(CN3CCCC3)cc2)N1C (centres undefined)	-0.347
CCOC(=O)C1=CCC(c2cc3ccccc3[nH]2)NC1 (centres undefined)	-0.465
O=C1C[C@@H](O)[C@@H](O)[C@@H]2[C@@H]3C(=O)N(c4ccc(F)cc4F)C(=O)[C@@H]3CC[C@@H]12	0.438

Form field composite z-score, entry `COC(=O)[C@@]1(Cc2ccc(F)cc2)[C@H]2c3cc(C(=O)N(C)C)n(Cc4ccc(OC)c(OC)c4)c3C[C@H]2CN1C(=O)c1ccccc1` : -0.344
